Cited source: patent US7683168B2

molecular target: human delta receptor (Homo sapiens); construct: 6110549; test: radioligand binding, human delta receptor, HEK-293 cell membranes; details: cell not marked (rat), species not given, read-out: δ
Sequence (P41143 whole entry): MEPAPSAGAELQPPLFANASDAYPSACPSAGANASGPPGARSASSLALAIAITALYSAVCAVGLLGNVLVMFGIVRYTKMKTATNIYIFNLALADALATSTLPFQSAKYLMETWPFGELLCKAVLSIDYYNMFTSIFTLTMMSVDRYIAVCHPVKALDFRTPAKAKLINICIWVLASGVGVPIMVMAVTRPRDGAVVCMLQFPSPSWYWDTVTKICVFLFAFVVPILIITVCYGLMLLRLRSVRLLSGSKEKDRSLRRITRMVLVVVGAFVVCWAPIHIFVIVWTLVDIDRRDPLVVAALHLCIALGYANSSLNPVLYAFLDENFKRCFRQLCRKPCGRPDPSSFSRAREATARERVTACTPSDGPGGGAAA
Reported pKi by item:
pKi is defined as minus the log10 of a concentration measured in mol/L.

The compound listed as C[C@@H]1CN([C@@H](c2cccc(O)c2)c2cccc(C(=O)N3CCN(CCCCCCC(=O)O)CC3)c2)[C@@H](C)CN1CC1CC1 shows pKi equal to 7.66

The compound listed as CCOC(=O)N1CCN(C(=O)c2cccc([C@H](c3cccc(O)c3)N3C[C@@H](C)N(Cc4cccc(F)c4)C[C@@H]3C)c2)CC1 shows pKi equal to 7.88

The compound listed as C=CCN1C[C@H](C)N([C@@H](c2cccc(O)c2)c2cccc(C(=O)N3CCN(CCCCCCC(=O)O)CC3)c2)C[C@H]1C shows pKi equal to 8.72

The compound listed as CCOC(=O)CCCN1CCN(C(=O)c2cccc([C@H](c3cccc(O)c3)N3C[C@@H](C)N(Cc4ccccc4)C[C@@H]3C)c2)CC1 shows pKi equal to 8.43

The compound listed as C[C@@H]1CN(C(c2cccc(O)c2)c2cccc(C(=O)N3CCCN(CCCCCC(=O)O)CC3)c2)[C@@H](C)CN1CC1CC1 (stereo partly shown) shows pKi equal to 8.25

The compound listed as C=CCN1C[C@H](C)N([C@@H](c2cccc(O)c2)c2cccc(C(=O)N3CCN(C(=O)OCC)CC3)c2)C[C@H]1C shows pKi equal to 9.09

The compound listed as C[C@@H]1CN([C@@H](c2cccc(O)c2)c2cccc(C(=O)N3CCN(CCCC(=O)O)CC3)c2)[C@@H](C)CN1Cc1cccc(F)c1 shows pKi equal to 7.51

The compound listed as CCOC(=O)CCCN1CCCN(C(=O)c2cccc(C(c3cccc(O)c3)N3C[C@@H](C)N(Cc4cccc(F)c4)C[C@@H]3C)c2)CC1 (stereo partly shown) shows pKi equal to 8.77

Next:
The compound listed as C=CCN1C[C@H](C)N([C@@H](c2cccc(O)c2)c2cccc(C(=O)N3CCN(CCCCCC(=O)O)CC3)c2)C[C@H]1C shows pKi equal to 8.60

The compound listed as C=CCN1C[C@H](C)N([C@@H](c2cccc(O)c2)c2cccc(C(=O)N3CCN(CCCC(=O)OCC)CC3)c2)C[C@H]1C shows pKi equal to 6.91

The compound listed as C[C@@H]1CN(C(c2cccc(O)c2)c2cccc(C(=O)N3CCCN(CCCCC(=O)O)CC3)c2)[C@@H](C)CN1Cc1cccc(F)c1 (stereo partly shown) shows pKi equal to 7.45

The compound listed as C[C@@H]1CN(C(c2cccc(O)c2)c2cccc(C(=O)N3CCCN(CCCC(=O)O)CC3)c2)[C@@H](C)CN1Cc1cccc(F)c1 (stereo partly shown) shows pKi equal to 7.03

The compound listed as CCOC(=O)CCN1CCCN(C(=O)c2cccc([C@H](c3cccc(O)c3)N3C[C@@H](C)N(Cc4cccc(F)c4)C[C@@H]3C)c2)CC1 shows pKi equal to 7.15
